Reference source for all entries: ChEMBL document CHEMBL1155797

// IC50 lookup, one value per entry
tested on: Poliovirus 1; experiment: Antiviral activity against Poliovirus type 1 Lsc-2ab in human FL cells; type: functional, organism-based; details: Enterovirus C
Quick note: give the figure in nM, leave out the unit.

{"SMILES DATA": "COc1cc2c(cc1OC)-c1c(OC)c(OC)cc3c1[C@H](C2)N(C)CC3", "IC50 [nM]": 60000}
{"SMILES DATA": "COc1cc2c(cc1OC)-c1c(OC)c(OC)cc3ccnc(c13)C2=O", "IC50 [nM]": 1200}

Please turn your attention to the following entry.
Lab request: please report IC50 under test system Poliovirus 1 for Cc1cc(CCCCCCCOc2ccc(C3=NCCO3)cc2)on1
2000

----------
test system: Coxsackievirus B1; test: Antiviral activity against Coxsackievirus B1 in human FL cells assessed as inhibition of cytopathic effect relative to control; assay type: functional
MEASURE: inhibition (INH)

Some molecules with known inhibition (INH) results, for comparison:
{"MOLECULE": "COc1cc2c(cc1OC)-c1c(OC)c(OC)c(CNC(=O)/C=C/c3cc(OC)c(O)c(OC)c3)c3c1C(C2)N(C)CC3 (centres undefined)", "MEASURED ON": "Coxsackievirus B1", "inhibition (INH)": "0%"}
{"MOLECULE": "COc1cc2c(cc1OC)-c1c(OC)c(OC)c(CNC(=O)/C=C/c3ccccc3O)c3c1C(C2)N(C)CC3 (centres undefined)", "MEASURED ON": "Coxsackievirus B1", "inhibition (INH)": "0%"}
{"MOLECULE": "COc1cc(/C=C/C(=O)NCc2c3c4c(c(OC)c2OC)-c2cc(OC)c(OC)cc2CC4N(C)CC3)ccc1O (centres undefined)", "MEASURED ON": "Coxsackievirus B1", "inhibition (INH)": "0%"}

Let us examine a further case.
Item under review: COc1cc2c(cc1OC)-c1c(OC)c(OC)c(CNC(=O)/C=C/c3ccc(O)cc3)c3c1C(C2)N(C)CC3 (centres undefined) . Reported inhibition (INH)?
0%

----------
test system: Radical scavenging activity; assay: Antioxidant activity assessed as DPPH free radical scavenging activity at 3.6 mM after 20 mins; assay type: functional
Exam item: assign Met to entries whose Activity is below 30% and Not met to entries at or above 30%. Note that a value of exactly 30% receives Not met.

Solved entries:
{"COMPOUND": "COc1cc(/C=C/C(=O)NCc2c3c4c(c(OC)c2OC)-c2cc(OC)c(OC)cc2CC4N(C)CC3)ccc1O (stereo not given)", "ASSIGNED CLASS": "Not met"}
{"COMPOUND": "O=C(O)/C=C/c1ccccc1O", "ASSIGNED CLASS": "Met"}
{"COMPOUND": "COc1cc2c(cc1OC)-c1c(OC)c(OC)c(CN)c3c1C(C2)N(C)CC3 (stereo not given)", "ASSIGNED CLASS": "Met"}
{"COMPOUND": "COc1cc2c(cc1OC)-c1c(OC)c(OC)c(CNC(=O)/C=C/c3ccc(O)cc3)c3c1C(C2)N(C)CC3 (stereo not given)", "ASSIGNED CLASS": "Met"}
{"COMPOUND": "COc1cc2c(cc1OC)-c1c(OC)c(OC)c(CNC(=O)/C=C/c3cc(OC)c(O)c(OC)c3)c3c1C(C2)N(C)CC3 (stereo not given)", "ASSIGNED CLASS": "Not met"}
{"COMPOUND": "COc1cc2c(cc1OC)-c1c(OC)c(OC)cc3c1[C@H](C2)N(C)CC3 [GLAUCINE]", "ASSIGNED CLASS": "Met"}
{"COMPOUND": "O=C(O)/C=C/c1ccc(O)cc1", "ASSIGNED CLASS": "Met"}
{"COMPOUND": "COc1cc2c(cc1OC)-c1c(OC)c(OC)c(CNC(=O)/C=C/c3ccccc3O)c3c1C(C2)N(C)CC3 (stereo not given)", "ASSIGNED CLASS": "Met"}
{"COMPOUND": "COc1cc(/C=C/C(=O)O)ccc1O", "ASSIGNED CLASS": "Not met"}

Here's the next entry for you.
Does this compound meet the criterion Activity < 30%? COc1cc(/C=C/C(=O)O)cc(OC)c1O
Not met
